Attribution: paper PMC3679108

# measurement_target: Xenopus GCRP receptor (Xenopus)
Listing of entries alongside the reported CRE-luc reporter, HEK293T cells with the receptor: EC50.
observed_property: CRE-luc reporter, HEK293T cells with the receptor: EC50 (nM)

binder: HSEGTFTSDFTRYLDKMKAKDFVHWLINT [Chicken GCRP]
units_of_measure: nM
result_number: 5.86
//
binder: HTDGMFTSDLTNYLDKMKAKNFVEWLAAIKQQE [Medaka GCRP]
units_of_measure: nM
result_number: 94.6
//
binder: HSEGTFSSDLTRYLDKMKAKDFVQWLMN [Xenopus GCRP]
units_of_measure: nM
result_number: 2.24
//
binder: YSEATLASDYSRTMDNMLKKNFVEWLLARREKKSDNVIEPY [Chicken GIP]
units_of_measure: nM
result_number: 274
